# Measurement Target: TYRO3 (human) (UniProt Q06418)
# Sequence (Q06418 whole entry, looked up): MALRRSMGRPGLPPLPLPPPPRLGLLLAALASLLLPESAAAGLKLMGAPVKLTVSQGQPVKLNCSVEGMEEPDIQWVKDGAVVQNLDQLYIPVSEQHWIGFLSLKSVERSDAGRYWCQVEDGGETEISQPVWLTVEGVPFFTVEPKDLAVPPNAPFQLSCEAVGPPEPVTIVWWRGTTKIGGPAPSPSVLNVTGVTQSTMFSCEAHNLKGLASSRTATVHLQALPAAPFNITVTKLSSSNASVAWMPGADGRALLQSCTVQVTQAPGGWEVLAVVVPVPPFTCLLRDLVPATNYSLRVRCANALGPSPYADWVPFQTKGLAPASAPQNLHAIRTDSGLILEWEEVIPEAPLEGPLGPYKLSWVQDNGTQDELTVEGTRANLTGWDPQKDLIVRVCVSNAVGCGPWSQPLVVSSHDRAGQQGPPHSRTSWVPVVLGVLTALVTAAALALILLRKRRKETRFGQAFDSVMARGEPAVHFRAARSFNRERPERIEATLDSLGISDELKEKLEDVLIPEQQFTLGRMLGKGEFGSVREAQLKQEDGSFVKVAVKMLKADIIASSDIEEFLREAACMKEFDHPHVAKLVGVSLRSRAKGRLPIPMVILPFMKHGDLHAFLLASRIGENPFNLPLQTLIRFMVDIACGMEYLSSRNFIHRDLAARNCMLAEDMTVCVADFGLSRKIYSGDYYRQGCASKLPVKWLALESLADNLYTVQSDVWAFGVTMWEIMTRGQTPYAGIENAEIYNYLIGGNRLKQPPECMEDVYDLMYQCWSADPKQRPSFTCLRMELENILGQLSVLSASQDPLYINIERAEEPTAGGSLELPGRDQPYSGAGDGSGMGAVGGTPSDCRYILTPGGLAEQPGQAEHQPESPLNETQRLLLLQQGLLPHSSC
# Assay Summary: radiometric filter-binding kinase assay, Kinase HotSpot
# Applied Conditions: compound 0.5 µM; ATP 10 µM
Value Type: residual activity (%)
# number only, unit % dropped from output

Quick check: residual activity of CC(C)(C)c1nc2c3ccc(F)cc3c3c(=O)[nH]ccc3c2[nH]1 ?
90.3

Okay, and Nc1nc(Nc2ccc(S(N)(=O)=O)cc2)nn1C(=O)c1c(F)cccc1F ?
98.6

How about COc1cc2nccc(Oc3ccc(NC(=S)NC(=O)c4ccccc4C)cc3)c2cc1OC ?
92.2

One more compound: O=c1cc(-c2cccc3c2Sc2ccccc2S3)oc(N2CCOCC2)c1
105

Again, but for Nc1nc(Nc2ccc(S(N)(=O)=O)cc2)nn1C(=S)Nc1c(F)cccc1F
29.8
